test: gradient 5% acetonitrile 3 min, to 50% in 2 min, to 85% in 15 min, held 3 min, 100 µL/min; conditions: column: Zorbax Extend-C18 2.1 x 50 mm; eluents: water / acetonitrile, 0.1% formic acid
parameter: RP-LC retention time (s)

INSERT INTO assay_data (compound, measurement_units, observed_measurement) VALUES
  ('CCSc1nc2ccc(NS(=O)(=O)c3cccc(F)c3)cc2s1', 's', 998),
  ('CCOC(=O)c1cnc2nc(C)ccc2c1Nc1ccc(F)c(F)c1', 's', 703),
  ('O=C(c1cc(-c2ccccn2)n[nH]1)N1CCCC(C(=O)N2CCc3ccccc3C2)C1 (centres undefined)', 's', 688),
  ('CCOC(=O)c1noc2nc(C)nc(N3CCc4ccccc4C3)c12', 's', 1120),
  ('COC(=O)C1=CN(c2ccc(F)cc2C)c2ccccc2S1(=O)=O', 's', 911),
  ('O=S(=O)(c1cccc(C(F)(F)F)c1)N1CCN(c2ccc(-n3ccnc3)nn2)CC1', 's', 601),
  ('CCN(CC)c1ncnc2c1cnn2CC(=O)N1CCN(c2ccccn2)CC1', 's', 549),
  ('CCOC(=O)COc1cc(-c2ccccc2)nc2ccc(NC(=O)COC)cc12', 's', 695),
  ('O=C(c1ccccn1)N1CCC(n2c(C3CCCC3)nc3cccnc32)C1 (centres undefined)', 's', 620),
  ('CCCNC(=O)c1nc2cc(C)c(C)cc2n(C)c1=O', 's', 747),
  ('CC(C)n1cnc(S(=O)(=O)N2CCC(C(=O)NC3CCCCCCC3)CC2)c1', 's', 827),
  ('COc1ccc(C)cc1NC(=O)c1nc(C)oc1C', 's', 1020),
  ('Cc1c(-c2noc(-c3ccc4c(c3)OCO4)n2)nnn1Cc1cccc(F)c1', 's', 990),
  ('O=C1CCCN1CCCN(CC(=O)N1CCNCC1)C(=O)c1ccc(Cl)cc1', 's', 586),
  ('CCN1C(=O)c2ccccc2Oc2ccc(C(=O)NCc3ccccc3OC)cc21', 's', 917),
  ('FC(F)(F)c1nc2cc3c(cc2n1Cc1ccc(Br)cc1)OCCO3', 's', 1080),
  ('O=C(Nc1nsc(-c2ccccc2)n1)c1cccs1', 's', 743),
  ('Cc1ccc(C)c(Nc2c(-c3ccc(Cl)cc3)nc3ncccn23)c1', 's', 954),
  ('CCOc1ccc(CC(=O)N2CCC3(CC2)Nc2cc(OC)ccc2-n2cccc23)cc1OCC', 's', 1030),
  ('COCCn1cc2c3c(cccc31)CN(C(=O)NCCC(C)C)CC2', 's', 912),
  ('O=C(NCCc1c[nH]c2ccc(Cl)cc12)c1ccncc1', 's', 639),
  ('O=C(O)c1cn(Cc2ccc(F)cc2)c(=O)c2ccccc12', 's', 806),
  ('CCOc1ccc(NC(=O)c2oc3ccc(CC)cc3c2C)c2cccnc12', 's', 837),
  ('CCOC(=O)c1cc(S(=O)(=O)N2CCCC2C(=O)Nc2ccc(F)cc2)cn1C (centres undefined)', 's', 920),
  ('COc1ccc(-c2nc(-c3ccc4c(c3)oc(=O)n4C)no2)cc1', 's', 1020),
  ('O=C(Cc1cccc(Cl)c1)NC1CCN(c2cc(-c3ccc(F)cc3)[nH]n2)C1 (centres undefined)', 's', 741),
  ('CCCOc1ccc(C2C(=O)N(C3CCCCC3)CC(=O)N2Cc2ccco2)cc1OC (centres undefined)', 's', 973),
  ('O=C1CN(CCc2cccs2)C2CS(=O)(=O)CC2N1c1ccc(Cl)cc1 (centres undefined)', 's', 790),
  ('Cc1cc(=O)n(CC(=O)N2CCCc3ccccc32)c(N2CCCC2)n1', 's', 665),
  ('Cc1coc2cc3oc(=O)c(CC(=O)N4CCC(C(N)=O)CC4)c(C)c3cc12', 's', 654),
  ('O=C(c1cncnc1)N1CCC(F)(F)C(COCC2CC2)C1 (centres undefined)', 's', 683),
  ('CCOc1ccc(S(=O)(=O)N2CCC(C(=O)NC3CCCC3)CC2)cc1', 's', 632),
  ('CS(=O)(=O)Nc1nc2ccccc2[nH]1', 's', 645),
  ('CCN1CCN(CCNC(=O)Cn2c(=O)n(-c3ccccc3)c3ncccc32)CC1', 's', 564);

###

experiment: gradient 5% acetonitrile 3 min, to 50% in 2 min, to 85% in 15 min, held 3 min, 100 µL/min; settings: column: Zorbax Extend-C18 2.1 x 50 mm; eluents: water / acetonitrile, 0.1% formic acid
Parameter: RP-LC retention time. Scope: all listed entries.
parameter: RP-LC retention time (s)

INSERT INTO measurements (compound, observed_measurement) VALUES
  ('Cc1nn(-c2cc(N3CCCC3)ncn2)c(C)c1CCC(=O)N1CCN(c2ccccn2)CC1', 587),
  ('O=C(COc1ccc(Br)cc1)Nc1cncc(-c2nc3ccccc3o2)c1', 1040),
  ('Cc1cc(OCC(=O)Nc2ccc(F)c(Cl)c2)nc(N2CCN(c3ccccc3)CC2)n1', 956),
  ('CN1[C@H]2C[C@H](OC(=O)[C@H](CO)c3ccccc3)C[C@@H]1[C@@H](O)C2', 596),
  ('COc1ccc(S(=O)(=O)N2CCCC(C(=O)N3CCc4ccccc4C3)C2)cc1Cl (stereo unspecified)', 1020),
  ('Cc1ccc(C(=O)N(C)C2CCc3nnc(C)n3CC2)s1 (stereo unspecified)', 613),
  ('CCCNC(=O)C1CCCN(c2ccc(SCC(=O)Nc3ccc(F)cc3F)nn2)C1 (stereo unspecified)', 657),
  ('COc1cc(-c2noc(Cn3ncn4nc(-c5cccs5)cc4c3=O)n2)cc(OC)c1OC', 983),
  ('Cc1nn(C)c(C)c1CCCN(C)C(=O)c1cc2c(s1)N(C)CCCC2', 770),
  ('Nc1ccccc1-c1nc2ccncc2[nH]1', 708),
  ('O=C(O)C1CN(C(=O)c2ccc3c(c2)OCO3)C1', 579),
  ('Oc1c(C(Nc2ccccc2)c2ccccn2)ccc2cccnc12 (stereo unspecified)', 763),
  ('COc1ccc(-c2cc(C(=O)N3CCCC3)c(C)n2C)cc1', 589),
  ('CCCC(=O)N1CCc2c([nH]c3ccccc23)C1c1ccc(Cl)cc1 (stereo unspecified)', 578),
  ('Cn1c(C(=O)N2CCN(c3ccccn3)CC2)cc2c(=O)n(C)c3ccccc3c21', 562),
  ('COc1ccc(CN2C=C(C(=O)OCc3ccccc3Cl)C(C)=NS2(=O)=O)cc1', 1170),
  ('COCCN1C(=O)c2ccccc2C(C(=O)NCc2ccccn2)C1c1cccs1 (stereo unspecified)', 642),
  ('O=C(C1CCCN(c2ncnc3c2nc2n3CCCCC2)C1)N(Cc1ccco1)C1CCCCC1 (stereo unspecified)', 1020),
  ('CCOC(=O)CSc1nc2ccccc2[nH]1', 596),
  ('CCCN(CC1CCOC1)C(=O)Nc1cccc(CC)c1 (stereo unspecified)', 864),
  ('COc1ccc(-c2csc3c(=O)n(CC(=O)NC4CCCC4)cnc23)cc1', 832),
  ('CCN(CC)c1nc2ccsc2c(=O)n1CCC(=O)NC1CCCC1', 726),
  ('CCOC(=O)COc1cc(-c2ccccc2)nc2ccc(NC(=O)Cc3cccs3)cc12', 797),
  ('CN1c2cc(F)ccc2C(=O)NC12CCN(C(=O)c1ccc3c(c1)OCO3)CC2', 724),
  ('Cc1cccc(S(=O)(=O)N2CC(F)(F)C[C@H]2CN2CCc3ccccc3C2)c1', 773),
  ('CC1(C)Cc2cccc(OCC(=O)N3CCC(c4nnc(-c5ccco5)s4)CC3)c2O1', 827),
  ('Cc1cc(C)n(-c2cc(N3CCCC(C(=O)Nc4nnc(C)s4)C3)ncn2)n1 (stereo unspecified)', 717),
  ('O=C(Nc1cccc([N+](=O)[O-])c1)c1cc2ccccc2cc1O', 1100),
  ('Cc1ccccc1OCc1nc(CCN(C)C(=O)CC2CCCC2)no1', 1020),
  ('CCNC(=O)N1CCc2nc(-c3ccc(F)cc3)ncc2C1', 752),
  ('COCCn1cc2c3c(cccc31)CN(C(=O)c1cccc(Cl)c1)CC2', 960);

###

assay: gradient 5% acetonitrile 3 min, to 50% in 2 min, to 85% in 15 min, held 3 min, 100 µL/min; conditions: column: Zorbax Extend-C18 2.1 x 50 mm; eluents: water / acetonitrile, 0.1% formic acid
parameter: RP-LC retention time (s)

INSERT INTO results (compound, parameter, measurement_units, observed_measurement) VALUES
  ('O=C(Cn1cnc(-c2nc(-c3ccccc3)cs2)c1)Nc1ccccc1', 'RP-LC retention time', 's', 819),
  ('COc1ccc(-c2noc(C3CCCN3C(=O)c3ccnn3C)n2)cc1 (centres undefined)', 'RP-LC retention time', 's', 808),
  ('Cc1onc(-c2ccccc2)c1C(=O)NC1C(=O)N2C1SC(C)(C)C2C(=O)O (centres undefined)', 'RP-LC retention time', 's', 818),
  ('O=C(Cn1nc(N2CCSCC2)c2ccccc2c1=O)Nc1ccc2c(c1)OCCO2', 'RP-LC retention time', 's', 818);
